Biological target: HLA-B*45:06
Assay: IEDB peptide-MHC binding, purified MHC/competitive/fluorescence; filed as Kd, often an IC50 or EC50 that approximates it; bounds were set here for any values at or beyond the usual limits of such assays
Details: source organism: Zaire ebolavirus
pKd: −log10 of the molar value.
quantity_kind: pKd

[[record]]
monomer_sequence = "VLYHRYNLV"
reported_result = "≤ 5.30"


###

Molecular target: HLA-A*02:19
Assay: IEDB peptide-MHC binding, purified MHC/competitive/fluorescence; filed as Kd, often an IC50 or EC50 that approximates it; bounds were set here for any values at or beyond the usual limits of such assays
Conditions: source organism: Encephalitozoon cuniculi GB-M1
pKd: −log10 of the molar value.
quantity_kind: pKd

[[record]]
monomer_sequence = "NLFEIEWEE"
quantity_kind = "pKd"
reported_result = "≤ 4.70"


###

Molecular target: HLA-B*57:01
Test: IEDB peptide-MHC binding, purified MHC/competitive/radioactivity; filed as Kd, often an IC50 or EC50 that approximates it; bounds were set here for any values at or beyond the usual limits of such assays
Conditions: source organism: Dengue virus 1 Singapore/S275/1990
pKd: −log10 of the molar value.
quantity_kind: pKd

[[record]]
monomer_sequence = "ASSVLLWMAS"
quantity_kind = "pKd"
reported_result = 4.82


###

Target: HLA-A*02:01
Test: IEDB peptide-MHC binding, purified MHC/competitive/fluorescence; filed as Kd, often an IC50 or EC50 that approximates it; bounds were set here for any values at or beyond the usual limits of such assays
Details: source organism: Orthomarburgvirus marburgense
pKd: −log10 of the molar value.
quantity_kind: pKd

[[record]]
monomer_sequence = "LYKTIVNIW"
reported_result = 7.29

[[record]]
monomer_sequence = "VPAWLPLGI"
reported_result = 5.98

[[record]]
monomer_sequence = "TVLEFILQK"
reported_result = 5.93


###

Target: HLA-A*23:01
Assay: IEDB peptide-MHC binding, purified MHC/competitive/radioactivity; filed as Kd, often an IC50 or EC50 that approximates it; bounds were set here for any values at or beyond the usual limits of such assays
Conditions: source organism: Mammarenavirus machupoense
quantity_kind: Kd

[[record]]
monomer_sequence = "RAEVSLHEV"
quantity_kind = "Kd"
reported_result = "≥ 77.7 µM"


###

Molecular target: HLA-B*18:01
Assay: IEDB peptide-MHC binding, purified MHC/direct/fluorescence; filed as Kd, often an IC50 or EC50 that approximates it; bounds were set here for any values at or beyond the usual limits of such assays
Settings: source organism: Entamoeba histolytica
pKd: −log10 of the molar value.
quantity_kind: pKd

[[record]]
monomer_sequence = "DFGYATMAK"
experimental_target = "HLA-B*18:01"
reported_result = "≤ 4.70"


###

Target: HLA-A*26:01
Assay: IEDB peptide-MHC binding, purified MHC/direct/fluorescence; filed as Kd, often an IC50 or EC50 that approximates it; bounds were set here for any values at or beyond the usual limits of such assays
Details: source organism: West Nile virus
quantity_kind: Kd

[[record]]
monomer_sequence = "SGIDTNAYY"
experimental_target = "HLA-A*26:01"
quantity_kind = "Kd"
reported_result = "≥ 20 µM"


###

Biological target: HLA-A*02:01
Test: IEDB peptide-MHC binding, purified MHC/competitive/radioactivity; filed as Kd, often an IC50 or EC50 that approximates it; bounds were set here for any values at or beyond the usual limits of such assays
Conditions: source organism: Triticum aestivum
pKd: −log10 of the molar value.
quantity_kind: pKd

[[record]]
monomer_sequence = "QLIPCMDVV"
experimental_target = "HLA-A*02:01"
reported_result = 6.83


###

Biological target: HLA-A*03:01
Experiment: IEDB peptide-MHC binding, purified MHC/direct/fluorescence; filed as Kd, often an IC50 or EC50 that approximates it; bounds were set here for any values at or beyond the usual limits of such assays
Settings: source organism: Yersinia pestis
pKd: −log10 of the molar value.
quantity_kind: pKd

[[record]]
monomer_sequence = "LTDEDKQNQ"
quantity_kind = "pKd"
reported_result = "≤ 4.70"


###

Target: HLA-B*15:01
Assay: IEDB peptide-MHC binding, purified MHC/direct/fluorescence; filed as Kd, often an IC50 or EC50 that approximates it; bounds were set here for any values at or beyond the usual limits of such assays
Details: source organism: Mammarenavirus lassaense
quantity_kind: Kd

[[record]]
monomer_sequence = "GYAWIDFDI"
reported_result = "≥ 20 µM"


###

Biological target: HLA-B*44:02
Test: IEDB peptide-MHC binding, purified MHC/direct/fluorescence; filed as Kd, often an IC50 or EC50 that approximates it; bounds were set here for any values at or beyond the usual limits of such assays
Conditions: source organism: Dengue virus 1 Singapore/S275/1990
quantity_kind: Kd

[[record]]
monomer_sequence = "VEGEGLHKL"
reported_result = "≥ 20 µM"


###

Molecular target: HLA-A*69:01
Test: IEDB peptide-MHC binding, purified MHC/direct/fluorescence; filed as Kd, often an IC50 or EC50 that approximates it; bounds were set here for any values at or beyond the usual limits of such assays
Details: source organism: Lyssavirus rabies
pKd: −log10 of the molar value.
quantity_kind: pKd

[[record]]
monomer_sequence = "RQMKSGGRF"
reported_result = "≤ 4.70"


###

Measured pKd of individual entries
Biological target: HLA-A*33:01
Assay: IEDB peptide-MHC binding, purified MHC/competitive/radioactivity; filed as Kd, often an IC50 or EC50 that approximates it; bounds were set here for any values at or beyond the usual limits of such assays
Details: source organism: Vaccinia virus WR
pKd: −log10 of the molar value.
quantity_kind: pKd

[[record]]
monomer_sequence = "STGESSILR"
quantity_kind = "pKd"
reported_relation = "="
reported_result = 5.33

[[record]]
monomer_sequence = "ESIEDKFDY"
quantity_kind = "pKd"
reported_relation = "≤"
reported_result = 4.11

[[record]]
monomer_sequence = "VTLFYCDER"
quantity_kind = "pKd"
reported_relation = "="
reported_result = 6.55

[[record]]
monomer_sequence = "SSLRREHIK"
quantity_kind = "pKd"
reported_relation = "≤"
reported_result = 4.43

[[record]]
monomer_sequence = "KSMFWDGMDY"
quantity_kind = "pKd"
reported_relation = "≤"
reported_result = 4.18

[[record]]
monomer_sequence = "AFLLRHYYNK"
quantity_kind = "pKd"
reported_relation = "="
reported_result = 5.72

[[record]]
monomer_sequence = "MIKMFSQIDR"
quantity_kind = "pKd"
reported_relation = "="
reported_result = 7.34

[[record]]
monomer_sequence = "KSKQDRSDGY"
quantity_kind = "pKd"
reported_relation = "≤"
reported_result = 4.15

[[record]]
monomer_sequence = "MMKLGISPSK"
quantity_kind = "pKd"
reported_relation = "="
reported_result = 4.97

[[record]]
monomer_sequence = "DIEIGNFYIR"
quantity_kind = "pKd"
reported_relation = "="
reported_result = 6.89

[[record]]
monomer_sequence = "FLKDDTLSK"
quantity_kind = "pKd"
reported_relation = "≤"
reported_result = 4.51


###

Target: HLA-B*40:01
Assay: IEDB peptide-MHC binding, purified MHC/direct/fluorescence; filed as Kd, often an IC50 or EC50 that approximates it; bounds were set here for any values at or beyond the usual limits of such assays
Settings: source organism: Brucella abortus
pKd: −log10 of the molar value.
Measured pKd of individual entries
quantity_kind: pKd

[[record]]
monomer_sequence = "LTDAFHGYH"
reported_result = "≤ 4.70"

[[record]]
monomer_sequence = "LSDDSGLMV"
reported_result = "≤ 4.70"


###

Molecular target: HLA-B*18:01
Experiment: IEDB peptide-MHC binding, purified MHC/direct/fluorescence; filed as Kd, often an IC50 or EC50 that approximates it; bounds were set here for any values at or beyond the usual limits of such assays
Conditions: source organism: Francisella tularensis subsp. holarctica LVS
pKd: −log10 of the molar value.
quantity_kind: pKd

[[record]]
monomer_sequence = "MEVGNTVAF"
quantity_kind = "pKd"
reported_result = "≥ 9.00"


###

Target: HLA-A*69:01
Experiment: IEDB peptide-MHC binding, purified MHC/competitive/fluorescence; filed as Kd, often an IC50 or EC50 that approximates it; bounds were set here for any values at or beyond the usual limits of such assays
Conditions: source organism: Homo sapiens
quantity_kind: Kd

[[record]]
monomer_sequence = "VSDFRKEFY"
experimental_target = "HLA-A*69:01"
quantity_kind = "Kd"
reported_result = "≥ 20 µM"

[[record]]
monomer_sequence = "VLIRRCHYL"
experimental_target = "HLA-A*69:01"
quantity_kind = "Kd"
reported_result = "≥ 20 µM"


###

Molecular target: HLA-A*24:03
Experiment: IEDB peptide-MHC binding, purified MHC/competitive/fluorescence; filed as Kd, often an IC50 or EC50 that approximates it; bounds were set here for any values at or beyond the usual limits of such assays
Details: source organism: Homo sapiens
quantity_kind: Kd

[[record]]
monomer_sequence = "EVIPYTPAM"
quantity_kind = "Kd"
reported_result = "≥ 20 µM"


Reference for the values: the Immune Epitope Database (IEDB)
